Would you kindly list pIC50 for each of these substances?
Measured Target: angiotensin-converting enzyme (ACE) (Homo sapiens)
Protocol Notes: ACE inhibitory activity in vitro (IC50)
Assay type: biochemical
Condition Parameters: chemically synthesised peptides, method of ref 35 with modifications of ref 28, mean ± SD, read-out: ACEi Activity IC50 (µm) ± SD
pIC50: −log10 of the molar value. Ends that are not written are not given here.

### Prompt Could you tell me which pIC50 is on file for EAPGGYDD [SEQ No.19] ?
### Response < 3.39

### Prompt Could you tell me which pIC50 is on file for KRRPPTT [SEQ No.18] ?
### Response < 3.41

### Prompt Could you tell me which pIC50 is on file for YEAYPS [SEQ No.21] ?
### Response < 3.34

### Prompt Could you tell me which pIC50 is on file for MSMAPY [SEQ No.23] ?
### Response < 3.32

###

Measured Target: angiotensin-converting enzyme (ACE) (Homo sapiens, UniProt P12821)
Sequence (P12821 30-1306, species assumed): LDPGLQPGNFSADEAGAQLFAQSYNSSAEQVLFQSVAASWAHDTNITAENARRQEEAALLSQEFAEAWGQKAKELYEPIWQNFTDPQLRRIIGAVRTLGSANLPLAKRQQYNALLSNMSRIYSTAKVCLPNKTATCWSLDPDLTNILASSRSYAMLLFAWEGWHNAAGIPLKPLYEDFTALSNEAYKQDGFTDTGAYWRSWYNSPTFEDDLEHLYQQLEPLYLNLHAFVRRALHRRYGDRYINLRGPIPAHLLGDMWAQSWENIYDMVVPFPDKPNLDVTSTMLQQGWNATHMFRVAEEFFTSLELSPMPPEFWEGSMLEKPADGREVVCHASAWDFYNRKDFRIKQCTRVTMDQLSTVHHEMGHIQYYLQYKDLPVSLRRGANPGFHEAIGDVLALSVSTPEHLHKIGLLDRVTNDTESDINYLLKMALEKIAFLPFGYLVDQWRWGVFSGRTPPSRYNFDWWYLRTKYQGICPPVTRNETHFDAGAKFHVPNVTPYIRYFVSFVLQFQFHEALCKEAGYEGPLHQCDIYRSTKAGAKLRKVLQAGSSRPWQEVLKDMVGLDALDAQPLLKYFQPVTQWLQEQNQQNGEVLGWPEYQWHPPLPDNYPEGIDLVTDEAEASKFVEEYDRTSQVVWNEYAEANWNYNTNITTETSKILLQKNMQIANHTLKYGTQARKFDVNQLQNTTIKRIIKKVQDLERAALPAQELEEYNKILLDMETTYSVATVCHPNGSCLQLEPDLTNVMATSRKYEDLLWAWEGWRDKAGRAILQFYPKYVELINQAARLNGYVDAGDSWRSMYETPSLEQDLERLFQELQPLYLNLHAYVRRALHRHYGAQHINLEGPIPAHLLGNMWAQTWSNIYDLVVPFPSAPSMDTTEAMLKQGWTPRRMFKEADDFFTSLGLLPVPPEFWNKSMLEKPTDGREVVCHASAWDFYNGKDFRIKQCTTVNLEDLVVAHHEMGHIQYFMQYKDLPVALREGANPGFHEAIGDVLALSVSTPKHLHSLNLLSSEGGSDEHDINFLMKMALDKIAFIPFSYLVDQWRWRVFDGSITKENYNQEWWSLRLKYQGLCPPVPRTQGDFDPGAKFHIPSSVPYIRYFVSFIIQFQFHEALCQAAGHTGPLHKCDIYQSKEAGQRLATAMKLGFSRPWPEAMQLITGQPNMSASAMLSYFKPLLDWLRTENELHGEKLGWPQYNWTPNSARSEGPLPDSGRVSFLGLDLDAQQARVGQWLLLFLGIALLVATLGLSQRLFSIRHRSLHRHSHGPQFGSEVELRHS
Protocol Notes: ACE inhibitory activity in vitro (IC50)
Assay type: biochemical
Condition Parameters: chemically synthesised peptides, method of ref 35 with modifications of ref 28, mean ± SD, SD, read-out: ACEi Activity IC50 (µm) ± SD
Peptide text beside a SMILES is read from it.
Observation Type: IC50 (nM)
Number only, in nM; omit the unit.

### Prompt Could you tell me which IC50 is on file for C[C@@H](O)[C@H](NC(=O)[C@H](CC(N)=O)NC(=O)[C@H](CS)NC(=O)CNC(=O)[C@H](CS)NC(=O)[C@@H](N)Cc1c[nH]cn1)C(=O)N[C@@H](Cc1c[nH]cn1)C(=O)O [SEQ No.3] (H-HCGCNTH-OH) ?
### Response 2580

### Prompt Could you tell me which IC50 is on file for CC(C)C[C@H](NC(=O)[C@@H]1CCCN1C(=O)[C@H](CC(=O)O)NC(=O)[C@H](CS)NC(=O)CNC(=O)[C@H](CS)NC(=O)CNC(=O)[C@@H](N)Cc1ccc(O)cc1)C(=O)O [SEQ No.6] (H-YGCGCDPL-OH) ?
### Response 1640

### Prompt Could you tell me which IC50 is on file for CC(C)[C@H](NC(=O)[C@H](C)NC(=O)[C@H](CC(N)=O)NC(=O)CNC(=O)[C@H](CS)NC(=O)[C@@H](N)CS)C(=O)N1CCC[C@H]1C(=O)N[C@@H](CCC(N)=O)C(=O)O [SEQ No.4] (H-CCGNAVPQ-OH) ?
### Response 39600

### Prompt Could you tell me which IC50 is on file for CC(C)C[C@H](N)C(=O)N[C@@H](CCC(=O)O)C(=O)N[C@@H](CCC(=O)O)C(=O)N[C@@H](Cc1ccccc1)C(=O)N[C@@H](CS)C(=O)N[C@@H](CS)C(=O)O [SEQ No.2] (H-LEEFCC-OH) ?
### Response 1850

### Prompt Could you tell me which IC50 is on file for C[C@H](NC(=O)[C@H](C)NC(=O)[C@@H](N)Cc1c[nH]c2ccccc12)C(=O)NCC(=O)N[C@@H](Cc1ccc(O)cc1)C(=O)N[C@@H](CS)C(=O)N[C@@H](CS)C(=O)O [SEQ No.8] (H-WAAGYCC-OH) ?
### Response 6880

### Prompt Could you tell me which IC50 is on file for N=C(N)NCCC[C@H](N)C(=O)N[C@@H](CC(=O)O)C(=O)NCC(=O)NCC(=O)N[C@@H](Cc1ccc(O)cc1)C(=O)N[C@@H](CS)C(=O)N[C@@H](CS)C(=O)O [SEQ No.1] (H-RDGGYCC-OH) ?
### Response 840

### Prompt Could you tell me which IC50 is on file for CC(C)C[C@H](NC(=O)[C@H](CC(=O)O)NC(=O)[C@H](CS)NC(=O)CNC(=O)[C@H](CS)NC(=O)CNC(=O)[C@@H](N)Cc1ccc(O)cc1)C(=O)N1CCC[C@H]1C(=O)O [SEQ No.5] (H-YGCGCDLP-OH) ?
### Response 3510

###

Would you kindly list log10 IC50 for each of these substances?
Measured Target: angiotensin-converting enzyme (ACE) (Homo sapiens, UniProt P12821)
Protocol Notes: ACE inhibitory activity in vitro (IC50)
Assay type: biochemical
Condition Parameters: chemically synthesised peptides, method of ref 35 with modifications of ref 28, mean ± SD, SD, read-out: ACEi Activity IC50 (µm) ± SD
Ends that are not written are not given here.
Hey, these are logged values: log10 of IC50, µM being the unit before logging.

### Prompt Could you tell me which log10 IC50 is on file for LALSAPVP [SEQ No.16] ?
### Response 2.48

### Prompt Could you tell me which log10 IC50 is on file for EECHAH [SEQ No.9] ?
### Response 1.07

### Prompt Could you tell me which log10 IC50 is on file for RPVPPVF [SEQ No.15] ?
### Response 2.36

### Prompt Could you tell me which log10 IC50 is on file for YMHCYF [SEQ No.7] ?
### Response 0.51

### Prompt Could you tell me which log10 IC50 is on file for LEFTSSY [SEQ No.12] ?
### Response 2.03

### Prompt Could you tell me which log10 IC50 is on file for LALAPTN [SEQ No.14] ?
### Response 2.13
